Test system: CAL-12T
testDescription: relative viability (nuclei count vs DMSO), 5 days (fraction); higher = more cells survive
experimentalConditions: first compound 20 µM
Please use YES for relative viability under 0.2 and NO for everything else, ties included.

Q: Consider the compound Cc1csc(=NC2CCCCC2)n1/N=C/c1ccc(O)c(O)c1O [MIM1] + N=C(N)NC(=N)NCCc1ccccc1 [Phenformin] (partner 250 µM) . Is its relative viability strictly less than 0.2?
Result: YES

Q: # iterate: Cc1csc(=NC2CCCCC2)n1/N=C/c1ccc(O)c(O)c1O [MIM1] + Cc1nc(NC(=O)N2CCC[C@H]2C(N)=O)sc1-c1ccnc(C(C)(C)C(F)(F)F)c1 [Alpelisib] (partner 2 µM)
Result: NO

Q: Cc1csc(=NC2CCCCC2)n1/N=C/c1ccc(O)c(O)c1O [MIM1] + C[C@]1(O)C[C@@H](c2nc(-c3ccc4ccc(-c5ccccc5)nc4c3)c3c(N)nccn32)C1 [Linsitinib] (partner 1 µM) , same question.
Result: NO

Q: And Cc1csc(=NC2CCCCC2)n1/N=C/c1ccc(O)c(O)c1O [MIM1] + CC1(C)CCC(c2ccc(Cl)cc2)=C(CN2CCN(c3ccc(C(=O)NS(=O)(=O)c4ccc(N[C@H](CCN5CCOCC5)CSc5ccccc5)c(S(=O)(=O)C(F)(F)F)c4)cc3)CC2)C1 [Navitoclax] (partner 0.5 µM) ?
Result: NO

Q: Follow-up item: Cc1csc(=NC2CCCCC2)n1/N=C/c1ccc(O)c(O)c1O [MIM1] + Cc1nc(Nc2ncc(C(=O)Nc3c(C)cccc3Cl)s2)cc(N2CCN(CCO)CC2)n1 [Dasatinib] (partner 0.075 µM)
Result: YES

---

Test system: NCI-H441
testDescription: relative viability (nuclei count vs DMSO), 5 days (fraction); higher = more cells survive
experimentalConditions: first compound 0.003162 µM
assayMetric: relative viability
Note: the reply should be a number with no unit written.

Q: State the recorded relative viability for this entry: Cc1cn(-c2cc(NC(=O)c3ccc(C)c(Nc4nccc(-c5cccnc5)n4)c3)cc(C(F)(F)F)c2)cn1 [Nilotinib] + C[C@@H](Oc1cc(-c2cnn(C3CCNCC3)c2)cnc1N)c1c(Cl)ccc(F)c1Cl [Crizotinib] (partner 1 µM)
Result: 0.825

Q: And what about the compound Cc1cn(-c2cc(NC(=O)c3ccc(C)c(Nc4nccc(-c5cccnc5)n4)c3)cc(C(F)(F)F)c2)cn1 [Nilotinib] + NC(=O)Nc1cc(-c2cccc(F)c2)sc1C(=O)N[C@H]1CCCNC1 [AZD7762] (partner 0.2 µM) ?
Result: 1.21

Q: Subsequent entry: Cc1cn(-c2cc(NC(=O)c3ccc(C)c(Nc4nccc(-c5cccnc5)n4)c3)cc(C(F)(F)F)c2)cn1 [Nilotinib] + COc1cc2c(Oc3ccc(NC(=O)C4(C(=O)Nc5ccc(F)cc5)CC4)cc3F)ccnc2cc1OCCCN1CCOCC1 [Foretinib] (partner 0.25 µM)
Result: 1.26

Q: Another compound to check: Cc1cn(-c2cc(NC(=O)c3ccc(C)c(Nc4nccc(-c5cccnc5)n4)c3)cc(C(F)(F)F)c2)cn1 [Nilotinib] + Cc1nc(Nc2ncc(C(=O)Nc3c(C)cccc3Cl)s2)cc(N2CCN(CCO)CC2)n1 [Dasatinib] (partner 0.075 µM)
Result: 0.712

---

Field: relative viability. Provide a value for each of the compounds that follow.
Tested on: LCLC-103H
testDescription: relative viability (nuclei count vs DMSO), 5 days (fraction); higher = more cells survive
experimentalConditions: first compound 2 µM
No unit in the answer, only the number.

Q: State the recorded relative viability for this entry: CN1CCN(CCOc2cc(OC3CCOCC3)c3c(Nc4c(Cl)ccc5c4OCO5)ncnc3c2)CC1 [Saracatinib] + Cc1nc(Nc2ncc(C(=O)Nc3c(C)cccc3Cl)s2)cc(N2CCN(CCO)CC2)n1 [Dasatinib] (partner 0.075 µM)
Result: 0.515

Q: Queued: Cc1csc(=NC2CCCCC2)n1/N=C/c1ccc(O)c(O)c1O [MIM1] + C[C@]1(O)C[C@@H](c2nc(-c3ccc4ccc(-c5ccccc5)nc4c3)c3c(N)nccn32)C1 [Linsitinib] (partner 1 µM)
Result: 1.22

Q: Also need Cc1csc(=NC2CCCCC2)n1/N=C/c1ccc(O)c(O)c1O [MIM1] + COc1cccc2cc(-c3nc([C@H]4CC[C@H](C(=O)O)CC4)n4ncnc(N)c34)[nH]c12 [OSI-027] (partner 0.5 µM) , thanks.
Result: 0.468

Q: Try this compound too: Cc1csc(=NC2CCCCC2)n1/N=C/c1ccc(O)c(O)c1O [MIM1] + Cc1nc(Nc2ncc(C(=O)Nc3c(C)cccc3Cl)s2)cc(N2CCN(CCO)CC2)n1 [Dasatinib] (partner 0.075 µM)
Result: 0.512

---

System: PC-14
testDescription: relative viability (nuclei count vs DMSO), 5 days (fraction); higher = more cells survive
experimentalConditions: first compound 0.006325 µM
Assign relative viability to each entry below.
Answer field: number only, no words.

Q: What value of relative viability on PC-14 does CCNC(=O)c1noc(-c2cc(C(C)C)c(O)cc2O)c1-c1ccc(CN2CCOCC2)cc1 [Luminespib] + CC(C)C[C@H](NC(=O)[C@H](Cc1ccccc1)NC(=O)c1cnccn1)B(O)O [Bortezomib] (partner 0.002 µM) have?
Result: 0.788

Q: Could you do the same for CCNC(=O)c1noc(-c2cc(C(C)C)c(O)cc2O)c1-c1ccc(CN2CCOCC2)cc1 [Luminespib] + COc1cc2c(Oc3ccc(NC(=O)C4(C(=O)Nc5ccc(F)cc5)CC4)cc3F)ccnc2cc1OCCCN1CCOCC1 [Foretinib] (partner 0.25 µM) , please?
Result: 0.882

---

Test system: EPLC-272H
testDescription: relative viability (nuclei count vs DMSO), 5 days (fraction); higher = more cells survive
experimentalConditions: first compound 0.253 µM
assayMetric: relative viability
Answer with a bare number; do not write a unit.

Q: Returns the measured relative viability for the input compound. Input: Nc1cccc2c1CN(C1CCC(=O)NC1=O)C2=O (centres undefined) [Lenalidomide] + N=C(N)NC(=N)NCCc1ccccc1 [Phenformin] (partner 250 µM)
Result: 0.282

Q: Now this one: Nc1cccc2c1CN(C1CCC(=O)NC1=O)C2=O (centres undefined) [Lenalidomide] + CCNC(=O)c1noc(-c2cc(C(C)C)c(O)cc2O)c1-c1ccc(CN2CCOCC2)cc1 [Luminespib] (partner 0.01 µM)
Result: 0.341

Q: Also Nc1cccc2c1CN(C1CCC(=O)NC1=O)C2=O (centres undefined) [Lenalidomide] + CC(=O)c1c(C)c2cnc(Nc3ccc(N4CCNCC4)cn3)nc2n(C2CCCC2)c1=O [Palbociclib] (partner 0.5 µM) , if possible.
Result: 0.34

Q: Let us now turn to Nc1cccc2c1CN(C1CCC(=O)NC1=O)C2=O (centres undefined) [Lenalidomide] + COc1cc2c(Oc3ccc(NC(=O)C4(C(=O)Nc5ccc(F)cc5)CC4)cc3F)ccnc2cc1OCCCN1CCOCC1 [Foretinib] (partner 0.25 µM)
Result: 0.795

---

Tested on: NCI-H1666
testDescription: relative viability (nuclei count vs DMSO), 5 days (fraction); higher = more cells survive
experimentalConditions: first compound 0.006325 µM
relative viability under 0.7 gets Yes, anything at or over 0.7 gets No.

Q: Consider the molecule CCNC(=O)c1noc(-c2cc(C(C)C)c(O)cc2O)c1-c1ccc(CN2CCOCC2)cc1 [Luminespib] + O=C(CCCCCCC(=O)Nc1ccccc1)NO [Vorinostat] (partner 1 µM) . Is its relative viability strictly less than 0.7?
Result: No

Q: What do you get for CCNC(=O)c1noc(-c2cc(C(C)C)c(O)cc2O)c1-c1ccc(CN2CCOCC2)cc1 [Luminespib] + O=C(c1cc(Cc2n[nH]c(=O)c3ccccc23)ccc1F)N1CCN(C(=O)C2CC2)CC1 [Olaparib] (partner 8 µM) ?
Result: No

Q: CCNC(=O)c1noc(-c2cc(C(C)C)c(O)cc2O)c1-c1ccc(CN2CCOCC2)cc1 [Luminespib] + COc1cc2c(Oc3ccc(NC(=O)C4(C(=O)Nc5ccc(F)cc5)CC4)cc3F)ccnc2cc1OCCCN1CCOCC1 [Foretinib] (partner 0.25 µM) ?
Result: No

Q: Ok, now CCNC(=O)c1noc(-c2cc(C(C)C)c(O)cc2O)c1-c1ccc(CN2CCOCC2)cc1 [Luminespib] + Cc1nc(NC(=O)N2CCC[C@H]2C(N)=O)sc1-c1ccnc(C(C)(C)C(F)(F)F)c1 [Alpelisib] (partner 2 µM)
Result: No

Q: For CCNC(=O)c1noc(-c2cc(C(C)C)c(O)cc2O)c1-c1ccc(CN2CCOCC2)cc1 [Luminespib] + NC(=O)Nc1cc(-c2cccc(F)c2)sc1C(=O)N[C@H]1CCCNC1 [AZD7762] (partner 0.2 µM) then?
Result: No

Q: Record: CCNC(=O)c1noc(-c2cc(C(C)C)c(O)cc2O)c1-c1ccc(CN2CCOCC2)cc1 [Luminespib] + Nc1ncn([C@H]2C[C@H](O)[C@@H](CO)O2)c(=O)n1 [Decitabine] (partner 2 µM)
Result: Yes
